test.name: Solubility behaviour (dissolved etofenamate over time) in distilled water
Type: physicochemical
details: 22° C, 3 min, read-out: Etofenamat gelöst
attribute.measured: solubility at 0.05 h (µg/mL)
One number for each entry, in µg/mL.

Need solubility at 0.05 h of O=C(OCCOCCO)c1ccccc1Nc1cccc(C(F)(F)F)c1 [Etofenamat] , thanks.
11

###

test.name: Solubility behaviour (dissolved etofenamate over time) in distilled water
Format: physicochemical
details: 22° C, 10 min, read-out: Etofenamat gelöst
attribute.measured: solubility at 10 min (µg/mL)
One number for each entry, in µg/mL.

Need solubility at 10 min of O=C(OCCOCCO)c1ccccc1Nc1cccc(C(F)(F)F)c1 [Etofenamat] , thanks.
11

###

test.name: Solubility behaviour (dissolved etofenamate over time) in distilled water
Format: physicochemical
details: 22° C, 5 min, read-out: Etofenamat gelöst
attribute.measured: solubility at 5 min
# output: number + unit

Need solubility at 5 min of O=C(OCCOCCO)c1ccccc1Nc1cccc(C(F)(F)F)c1 [Etofenamat] , thanks.
11 µg/mL

###

test.name: Solubility behaviour (dissolved etofenamate over time) in distilled water
Type: physicochemical
details: 22° C, 45 min, read-out: Etofenamat gelöst
attribute.measured: solubility at 0.75 h

Need solubility at 0.75 h of O=C(OCCOCCO)c1ccccc1Nc1cccc(C(F)(F)F)c1 [Etofenamat] , thanks.
11 µg/mL
